Biological target: T1, canine NGF (canine, UniProt Q29074 110-229 (pig entry), limits assumed)
T1 construct: The protein was secreted from CHO cells and purified; also called cNGF; canine β-NGF
T1 chain: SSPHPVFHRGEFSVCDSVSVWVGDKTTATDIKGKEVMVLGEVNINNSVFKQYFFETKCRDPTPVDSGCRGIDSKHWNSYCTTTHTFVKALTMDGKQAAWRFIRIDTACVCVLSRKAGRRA
Experiment: SPR (Biacore T200), 100 nM mAb on NGF chip, similarity to parent mAb
From the text: The region of an antibody responsible for antigen recognition represents the paratope. A paratope is created by a combination of amino acids in the complementarity determining regions (CDRs) of both the heavy and light chain variable regions. The binding between antibody and antigen is often mediated by side chains of CDR residues with side chains or carbohydrate moieties of the antigen. […]
readout: Percent Similarity Score (KD on cN) (%)
Write down the numeric answer in % and omit the unit.

Prompt line: State its Percent Similarity Score (KD on cN) for this binder: can9L12VH_I50A (antibody, V domains shown) VH: EVQLVESGGDLVKPGGSLRLSCVASGFTFSSHGMHWVRQSPGKGLQWVAVANSGGSSTYYTDAVKGRFTISRDNAKNTVYLQMNSLRAEDTAMYYCAKESVGGWEQLVGPHFDYWGQGTLVIVSS VL: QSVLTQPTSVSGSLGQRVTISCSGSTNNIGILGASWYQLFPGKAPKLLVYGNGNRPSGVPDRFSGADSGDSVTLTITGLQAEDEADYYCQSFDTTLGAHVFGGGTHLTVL
Response line: 100

Prompt line: State its Percent Similarity Score (KD on cN) for this binder: can9L12VH_S100A (antibody, V domains shown) VH: EVQLVESGGDLVKPGGSLRLSCVASGFTFSSHGMHWVRQSPGKGLQWVAVINSGGSSTYYTDAVKGRFTISRDNAKNTVYLQMNSLRAEDTAMYYCAKEAVGGWEQLVGPHFDYWGQGTLVIVSS VL: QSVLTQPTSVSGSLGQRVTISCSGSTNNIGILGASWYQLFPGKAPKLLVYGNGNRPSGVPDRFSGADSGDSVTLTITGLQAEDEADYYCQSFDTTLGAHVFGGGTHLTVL
Response line: 76.2

Prompt line: State its Percent Similarity Score (KD on cN) for this binder: can48L2VH_H112A (antibody, V domains shown, CDR scanning mutant of ZTS-842 (48L2)) VH: EVQLVESGGDLVKPGGSLRLSCVASGFTFSTYGINWVRQAPGKGLQWVAYISSGGSSTYYADPVKGRFTISRDDAKNMLYLQMNSLRAEDTAIYYCAGSRYTYAYGGGYEFAFWGQGTLVTVSS VL: QAVLNQPASVSGALGQKVTISCSGSTMDIDIFGVSWYQQLPGKAPKLLVDSDGDRPSGIPDRFSGSRSGNSGTLTITGLQAEDEADYHCQSGDSTLGALAIFGGGTHVTVL
Response line: 40.3

Prompt line: State its Percent Similarity Score (KD on cN) for this binder: can9L12VH_T28A (antibody, V domains shown) VH: EVQLVESGGDLVKPGGSLRLSCVASGFAFSSHGMHWVRQSPGKGLQWVAVINSGGSSTYYTDAVKGRFTISRDNAKNTVYLQMNSLRAEDTAMYYCAKESVGGWEQLVGPHFDYWGQGTLVIVSS VL: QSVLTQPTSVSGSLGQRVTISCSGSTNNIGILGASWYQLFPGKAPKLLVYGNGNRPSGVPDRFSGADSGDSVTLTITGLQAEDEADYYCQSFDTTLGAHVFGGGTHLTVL
Response line: 100

Prompt line: State its Percent Similarity Score (KD on cN) for this binder: can9L12VL_I29A (antibody, V domains shown) VH: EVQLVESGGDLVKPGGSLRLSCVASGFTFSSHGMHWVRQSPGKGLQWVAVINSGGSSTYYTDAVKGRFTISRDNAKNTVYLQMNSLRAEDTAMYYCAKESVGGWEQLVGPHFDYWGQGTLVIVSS VL: QSVLTQPTSVSGSLGQRVTISCSGSTNNAGILGASWYQLFPGKAPKLLVYGNGNRPSGVPDRFSGADSGDSVTLTITGLQAEDEADYYCQSFDTTLGAHVFGGGTHLTVL
Response line: 4.4
